The reader will find reported inhibition at 10 µM values listed item by item below.
target: BTK (Homo sapiens); assay: biochemical; details: read-out: BTK inhibition (%), 0.75 uM BTK, […] probe 3l, 15 min preincubation
Sequence (Q06187 402-655 limits assumed): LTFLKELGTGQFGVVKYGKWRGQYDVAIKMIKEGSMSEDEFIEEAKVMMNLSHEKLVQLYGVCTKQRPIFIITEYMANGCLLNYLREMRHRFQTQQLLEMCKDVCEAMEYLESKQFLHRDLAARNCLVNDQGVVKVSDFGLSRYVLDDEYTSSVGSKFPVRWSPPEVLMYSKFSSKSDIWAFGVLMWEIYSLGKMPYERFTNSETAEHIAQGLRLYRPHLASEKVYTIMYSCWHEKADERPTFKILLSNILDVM
// units = %; emit number, no label

Look over these answered cases.
{"COMPOUND": "CN1CCC(=C2c3ccccc3CC(=O)c3sccc32)CC1", "SCALE_UNIT": "%", "inhibition at 10 µM": 10.3}
{"COMPOUND": "Cc1c(C(=O)NN2CCCCC2)nn(-c2ccc(Cl)cc2Cl)c1-c1ccc(Cl)cc1", "SCALE_UNIT": "%", "inhibition at 10 µM": 42}
{"COMPOUND": "CS(=O)(=O)c1ccc(-c2cnc(N)c(C(=O)Nc3ccccc3)n2)cc1", "SCALE_UNIT": "%", "inhibition at 10 µM": 10.3}
{"COMPOUND": "CC(C)c1cc2c(c(O)c1O)[C@@]13CCCC(C)(C)[C@@H]1C[C@@H]2OC3=O", "SCALE_UNIT": "%", "inhibition at 10 µM": 10.8}
{"COMPOUND": "CCC1=C[C@@H]2CN(C1)Cc1c([nH]c3ccccc13)[C@@](C(=O)OC)(c1cc3c(cc1OC)N(C)[C@H]1[C@@](O)(C(=O)OC)[C@H](OC(C)=O)[C@]4(CC)C=CCN5CC[C@]31[C@@H]54)C2", "SCALE_UNIT": "%", "inhibition at 10 µM": 14}
{"COMPOUND": "C/C(=C\\CO)CCC[C@H](C)CCC[C@H](C)CCCC(C)C", "SCALE_UNIT": "%", "inhibition at 10 µM": 3.9}
{"COMPOUND": "CO[C@H]1O[C@@H]2O[C@@]3(C)CC[C@H]4[C@H](C)CC[C@@H]([C@H]1C)[C@@]24OO3", "SCALE_UNIT": "%", "inhibition at 10 µM": 3.1}
{"COMPOUND": "NC(=O)C1CCCc2c1[nH]c1ccc(Cl)cc21 (stereo not drawn)", "SCALE_UNIT": "%", "inhibition at 10 µM": -3.4}

Shifting focus to the compound that follows.
Ask: inhibition at 10 µM for CCCCS(=O)(=O)N[C@@H](Cc1ccc(OCCCCC2CCNCC2)cc1)C(=O)O ?
Result: -1.5

====

target: BTK (Homo sapiens); experiment: biochemical; details: read-out: BTK inhibition (%), 0.75 uM BTK, […] probe 3l, 15 min preincubation
Give Met when the value for inhibition at 10 µM is at least 10%. Give Not met when it is less.

{"MOLECULE": "Cc1cccc(Nc2nc(N[C@@H]3CCCC[C@@H]3N)ncc2C(N)=O)c1 [PCM-0215814]", "EXPERIMENTAL_SYSTEM": "BTK (Homo sapiens)", "LABEL": "Met"}
{"MOLECULE": "CCN(CC)C(=O)c1ccc(C2=CC3(CCNCC3)Oc3cccc(O)c32)cc1 [PCM-0094948]", "EXPERIMENTAL_SYSTEM": "BTK (Homo sapiens)", "LABEL": "Not met"}
{"MOLECULE": "COc1ccc2ccc(=O)oc2c1CC=C(C)C [PCM-0094564]", "EXPERIMENTAL_SYSTEM": "BTK (Homo sapiens)", "LABEL": "Not met"}
{"MOLECULE": "CO/N=C(\\C(=O)N[C@@H]1C(=O)N2C(C(=O)O)=C(CSc3nc(=O)c(O)nn3C)CS[C@H]12)c1csc(N)n1 [PCM-0215203]", "EXPERIMENTAL_SYSTEM": "BTK (Homo sapiens)", "LABEL": "Not met"}
{"MOLECULE": "C[C@@H](O)[C@H]1C(=O)N2C(C(=O)OCOC(=O)C(C)(C)C)=C(SC3CN(C4=NCCS4)C3)[C@H](C)[C@H]12 [PCM-0214665]", "EXPERIMENTAL_SYSTEM": "BTK (Homo sapiens)", "LABEL": "Not met"}
{"MOLECULE": "Cc1cc(O)c2c(c1)C(=O)c1cc(O)cc(O)c1C2=O [PCM-0065315]", "EXPERIMENTAL_SYSTEM": "BTK (Homo sapiens)", "LABEL": "Met"}
{"MOLECULE": "CC#CC(=O)Nc1ccc2ncnc(Nc3cccc(Br)c3)c2c1 [PCM-0215449]", "EXPERIMENTAL_SYSTEM": "BTK (Homo sapiens)", "LABEL": "Met"}

# next molecule below
Ask: Does the reported inhibition at 10 µM for COc1cc2c(c(OC)c1OC)-c1c(cc3c(c1OC)OCO3)CC(C)C(C)C2 (centres unmarked) [PCM-0214727] fall at or above the 10% mark?
Result: Met
